Reference for the values: patent US9340577B2

experimentalSystem: DRB1*1201 (Homo sapiens, UniProt P01903+P01911, A100R/A169T/D57E/D86V/F55L/H45Y/K41T/L162R/M171V/P40S/Q125H/Q178H/Q39Y/Q99D/R42G/S66L/T262R/V114A/V67L/W38E/Y59H/Y61H/Y89S)
assayInfo: biochemical
Give measured IC50 for each item. Keep answers brief.

Lookup: Sample CC[C@H](C)[C@H](NC(=O)[C@@H]1CCCN1C(=O)[C@H](CC(=O)O)NC(=O)[C@@H](NC(=O)[C@@H]1CCCN1C(=O)[C@H](Cc1ccccc1)NC(=O)[C@@H](NC(=O)[C@H](CC(=O)O)NC(=O)[C@@H](NC(=O)[C@@H]1CCCN1C(=O)[C@H](CO)NC(=O)[C@@H](N)CCCNC(=N)N)[C@@H](C)CC)[C@@H](C)O)[C@@H](C)O)C(=O)N[C@@H](CCCCN)C(=O)N[C@@H](CCC(=O)O)C(=O)N[C@@H](CO)C(=O)O [Peptide 68.0026] — what was its IC50?
Found: > 20 µM

Lookup: Also CC[C@H](C)[C@H](NC(=O)CNC(=O)[C@H](CCC(N)=O)NC(=O)[C@H](CC(C)C)NC(=O)[C@@H](NC(=O)CNC(=O)[C@H](CC(N)=O)NC(=O)[C@H](CS)NC(=O)[C@@H](NC(=O)[C@H](CC(C)C)NC(=O)[C@@H]1CCCN1C(=O)CN)C(C)C)C(C)C)C(=O)N[C@H](C(=O)N[C@@H](CO)C(=O)N[C@@H](Cc1c[nH]c2ccccc12)C(=O)O)[C@@H](C)O [Peptide 68.0080] , if possible.
Found: 1.88 µM

Lookup: And the next one, CC[C@H](C)[C@H](NC(=O)[C@H](Cc1c[nH]c2ccccc12)NC(=O)[C@H](CCC(=O)O)NC(=O)[C@@H]1CCCN1)C(=O)N[C@@H](CCC(=O)O)C(=O)N[C@@H](CCCNC(=N)N)C(=O)N[C@@H](CCC(N)=O)C(=O)N[C@H](C(=O)N[C@H](C(=O)N[C@@H](CC(C)C)C(=O)N[C@@H](CCC(N)=O)C(=O)N[C@@H](Cc1c[nH]cn1)C(=O)N[C@@H](CO)C(=O)N[C@@H](Cc1ccccc1)C(=O)N[C@@H](CC(N)=O)C(=O)O)C(C)C)[C@@H](C)O [Peptide 89.0049] ?
Found: 7.98 µM
